Measured Target: T1, soluble human insulin receptor-immunoglobulin heavy chain chimera (human, UniProt P06213 28-956)
T1 construct: extracellular domain; Heterotetramer; also called IR; sIR-Fc; not shown: immunoglobulin heavy chain constant domains replacing the transmembrane and intr
Experiment Description: phage ELISA ratios compared
Catalogue of binders with associated IR/IGF-1R ratio comparison

{"columns": ["Binder", "IR/IGF-1R ratio comparison"],
 "data": [
  ["SSCDGAGHESFYEWFVRQVSGCRSV [H2CA-3-C8-IGFR]", 0.2],
  ["SGAKVIVVTGDSGDPFYHKLSELLQGS [B6Hα-2-C10-IR]", 0.2],
  ["QGGSASFYDAIDRLLRMRIGG [20E2A-4-F11-IGFR]", 0.1],
  ["RCGRELYHSTFYDWFDRQVAGRTCPS [H2CA-1-A7-IGFR]", 0.3],
  ["SSIGGGFHENFYDWFSRQLSQSPPLK [H2CA-4-F7-IGFR]", 0.2]
]}

The reported numbers originate from patent US6875741.
